- EXPERIMENTAL TARGET: UniProt P50406
- Sequence (P50406 whole entry): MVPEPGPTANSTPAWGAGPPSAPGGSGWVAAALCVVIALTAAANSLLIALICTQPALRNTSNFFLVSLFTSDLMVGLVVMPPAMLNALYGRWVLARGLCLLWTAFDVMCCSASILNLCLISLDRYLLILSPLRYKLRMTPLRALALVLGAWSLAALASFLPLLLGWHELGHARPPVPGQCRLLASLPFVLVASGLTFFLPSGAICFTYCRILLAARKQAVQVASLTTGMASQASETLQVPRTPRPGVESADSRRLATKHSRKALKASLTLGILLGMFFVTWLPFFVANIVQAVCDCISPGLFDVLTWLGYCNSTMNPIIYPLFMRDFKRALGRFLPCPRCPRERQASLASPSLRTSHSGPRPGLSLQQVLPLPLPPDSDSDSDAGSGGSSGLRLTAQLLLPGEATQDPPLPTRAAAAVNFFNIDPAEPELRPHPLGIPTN
pKi: −log10 of the molar value.
REPORTED ENDPOINT: pKi

input_smiles=O=S(=O)(Nc1ccc2[nH]cc(C[C@H]3CCCN3)c2c1)c1ccc(F)cc1F test_value=8.10
input_smiles=CN1CCC[C@@H]1Cc1c[nH]c2ccc(NS(=O)(=O)c3ccc(I)cc3)cc12 test_value=9.52
input_smiles=O=S(=O)(Nc1ccc2[nH]cc(C[C@H]3CCCN3)c2c1)c1ccc(F)cc1 test_value=8.40
input_smiles=O=S(=O)(Nc1ccc2[nH]cc(C[C@H]3CCCN3)c2c1)c1ccc(Cl)cc1 test_value=8.52
input_smiles=CN1CCC[C@H]1Cc1c[nH]c2ccc(NS(=O)(=O)c3cccc(Cl)c3)cc12 test_value=7.96
